# TESTED TARGET: the molecule itself
# PROCEDURE SUMMARY: AUC
pKd: −log10 of the molar value.
TEST READOUT: pKd

Exam item: Given the protein C.Esp1396I controller (C) protein (natural protein, UniProt Q8GGH0 1-79, looked up) MESFLLSKVSFVIKKIRLEKGMTQEDLAYKSNLDRTYISGIERNSRNLTIKSLELIMKGLEVSDVVFFEMLIKEILKHD , what is its reported pKd?
Marked response: ~6.22
